System: HIV-1 strain LAI
Assay: Cellular anti-HIV assay in MT4 cells (MTT)
Format: cell-based
Conditions: Human immunodeficiency virus 1, MT4
Readout Name: pIC50
Scale note: pIC50 = -log10(concentration in M).

[Q] Supply recorded pIC50 for CC(C)(C)NC(=O)[C@@H]1C[C@@H]2CCCC[C@@H]2CN1C[C@@H](O)[C@H](Cc1ccccc1)NC(=O)[C@H](CC(N)=O)NC(=O)c1ccc2ccccc2n1 [SAQ, Saquinavir] here.
[A] 8.10

###

System: HIV strain r13030
Assay: Antiviral spectrum, protease inhibitor resistant strain
Format: cell-based
Conditions: Human immunodeficiency virus 1, strain r13030; L10V/I, M36I, I54V, L63P, A71V, V82T, L90M
Protocol: HIV- or mock-infected MT4 cells were incubated for five days in the presence of various concentrations of the inhibitor. […] Cell viability is measured by measuring the concentration of MTT, a yellow, water soluble tetrazolium dye that is converted to a purple, water insoluble formazan in the mitochondria of living cells only. Upon solubilization of the resulting formazan crystals with isopropanol, the absorbance of the solution is monitored at 540 nm. […]
pIC50: −log10 of the molar value.
Use Criterion met when the recorded pIC50 is no lower than 7; use Criterion not met when it is lower.

Compound	Study Target	Label
CC(C)CN(CC(O)C(Cc1ccccc1)NC(=O)OC1COC2OCCC12)S(=O)(=O)c1ccc2c(c1)OCO2 (stereo not drawn) [Compound 14]	HIV strain r13030	Criterion met

[Q] Determine whether this compound has pIC50 no lower than 7: CC(C)(C)NC(=O)[C@@H]1C[C@@H]2CCCC[C@@H]2CN1C[C@@H](O)[C@H](Cc1ccccc1)NC(=O)[C@H](CC(N)=O)NC(=O)c1ccc2ccccc2n1 [SAQ, Saquinavir]
[A] Criterion not met

[Q] Determine whether this compound has pIC50 no lower than 7: CC(C)CN(C[C@@H](O)[C@H](Cc1ccccc1)NC(=O)O[C@H]1CCOC1)S(=O)(=O)c1ccc(N)cc1 [AMP, Amprenavir]
[A] Criterion met

[Q] Determine whether this compound has pIC50 no lower than 7: Cc1c(O)cccc1C(=O)N[C@@H](CSc1ccccc1)[C@H](O)CN1C[C@H]2CCCC[C@H]2C[C@H]1C(=O)NC(C)(C)C [NEL, Nelfinavir]
[A] Criterion not met

[Q] Determine whether this compound has pIC50 no lower than 7: CC(C)(C)NC(=O)[C@@H]1CN(Cc2cccnc2)CCN1C[C@@H](O)C[C@@H](Cc1ccccc1)C(=O)N[C@H]1c2ccccc2C[C@H]1O [IND, Indinavir]
[A] Criterion not met

[Q] Determine whether this compound has pIC50 no lower than 7: CC(C)c1nc(CN(C)C(=O)N[C@H](C(=O)N[C@@H](Cc2ccccc2)C[C@H](O)[C@H](Cc2ccccc2)NC(=O)OCc2cncs2)C(C)C)cs1 [RIT, Ritonavir]
[A] Criterion not met

###

System: HIV strain r13036
Assay: Antiviral spectrum, protease inhibitor resistant strain
Format: cell-based
Conditions: Human immunodeficiency virus 1, strain r13036; L10I, L63P, A71V, G73S, L90M
Doc: threshold 600 nM (exclusive). Items with IC50 beneath it return Condition met; others return Condition not met.

Example entries begin here.
Compound	Label
CC(C)(C)NC(=O)[C@@H]1C[C@@H]2CCCC[C@@H]2CN1C[C@@H](O)[C@H](Cc1ccccc1)NC(=O)[C@H](CC(N)=O)NC(=O)c1ccc2ccccc2n1	Condition met
Cc1c(O)cccc1C(=O)N[C@@H](CSc1ccccc1)[C@H](O)CN1C[C@H]2CCCC[C@H]2C[C@H]1C(=O)NC(C)(C)C	Condition not met
CC(C)CN(C[C@@H](O)[C@H](Cc1ccccc1)NC(=O)O[C@H]1CCOC1)S(=O)(=O)c1ccc(N)cc1	Condition met
CC(C)c1nc(CN(C)C(=O)N[C@H](C(=O)N[C@@H](Cc2ccccc2)C[C@H](O)[C@H](Cc2ccccc2)NC(=O)OCc2cncs2)C(C)C)cs1	Condition not met

[Q] Identify whether the compound `CC(C)(C)NC(=O)[C@@H]1CN(Cc2cccnc2)CCN1C[C@@H](O)C[C@@H](Cc1ccccc1)C(=O)N[C@H]1c2ccccc2C[C@H]1O` records IC50 below 600 nM.
[A] Condition not met

[Q] Identify whether the compound CC(C)CN(CC(O)C(Cc1ccccc1)NC(=O)OC1COC2OCCC12)S(=O)(=O)c1ccc2c(c1)OCO2 (stereo not drawn) records IC50 below 600 nM.
[A] Condition met

###

Test: Oral absorption in rats, serum concentration
Format: in vivo
Conditions: rat, serum, po, 20 mg/kg, single oral dose 20 mg/kg in PEG400 by gavage, 60 minutes after administration, read-out: Compound concentration in serum
Readout Name: concentration at 60 min (nM)
Write it as a number; the unit nM goes unstated.

[Q] Supply recorded concentration at 60 min for CC(C)CN(CC(O)C(Cc1ccccc1)NC(=O)OC1COC2OCCC12)S(=O)(=O)c1ccc2c(c1)OCO2 (stereo not shown) [Compound 13] here.
[A] 1000

###

System: HIV strain r13035
Assay: Antiviral spectrum, protease inhibitor resistant strain
Assay type: cell-based
Conditions: strain r13035; D30N, L63P, V77I, N88D
Readout Name: pIC50
Scale note: pIC50 = -log10(concentration in M).

[Q] Supply recorded pIC50 for CC(C)CN(CC(O)C(Cc1ccccc1)NC(=O)OC1COC2OCCC12)S(=O)(=O)c1ccc2c(c1)OCO2 (stereo not shown) [Compound 13] here.
[A] 9.52
